- target.entity: Troponin I, cardiac muscle (Homo sapiens) + Troponin T, cardiac muscle (Homo sapiens) + Troponin C, slow skeletal and cardiac muscles (Homo sapiens) (UniProt P19429+P45379+P63316)
- assay.notes: cardiac RTF calcium sensitivity activators, confirmation, biochemical, IANBD-TnC fluorescence, triplicate (AID 504383)
- test.context: IANBD-labeled cardiac RTF, Ca2+ sensitivity fluorescence; at 7.2 µM; scaled from EC20 to saturating calcium; tested at EC20 calcium, 0.472 mM
Hit rate of the full screen: of about 2,500 compounds, about 1,200 (48%) were called active.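 How the source made its calls: active means mean activation above the low control average plus 3 SD, as set in the primary screen (cut at about 12% in these data); inactive means the rest.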 So high a share suggests a set chosen from earlier hits. The list shows a part of the results.
Parameter call: string, one of active, inactive

IN: Name the outcome recorded for CC1CCN(c2ccc3c(c2)S(=O)(=O)c2cccc(C(=O)NC4CCCCC4)c2C3=O)CC1 in the assay.
OUT: inactive

IN: Please share the test call associated with Cc1ccc(C(=O)NN2C(=O)/C(=C/c3cn(C)c4ccccc34)SC2=S)cc1 .
OUT: active

IN: Could you please tell me the result logged for CCOc1ccc(CNC(=O)c2ccc(Sc3ccc(Cl)cc3)c(NC(C)=O)c2)cc1 in this assay?
OUT: active

IN: Could you check what this test reported for COC(=O)[C@H](C)NC(=O)c1cc2c(cn1)[nH]c1ccccc12 ?
OUT: inactive

IN: Which outcome did this test record for the compound O=C(NCc1cccc(F)c1)c1cccc2c1C(=O)c1ccc(N3CCCC3)cc1S2(=O)=O ?
OUT: inactive

IN: What did this assay record as the result for Cn1cc(/C=C2\SC(=S)N(NC(=O)c3ccccc3)C2=O)c2ccccc21 ?
OUT: active

IN: Tell me the recorded outcome of this test for COc1c(Cl)ccc(Cl)c1C(=O)NCc1ccco1 .
OUT: inactive

IN: Per the assay record, what outcome was assigned to CN1CCC[C@@H]1CCNC(=O)c1cccc2c1C(=O)c1ccc(N3CCCC3)cc1S2(=O)=O ?
OUT: inactive

IN: Hi team, can someone confirm the assay call for O=C(NCc1ccco1)c1cc(-c2cccc(Cl)c2)on1 ?
OUT: inactive

IN: Hi, do you know how N#Cc1ccc(CSc2nnc(-c3cnccn3)o2)cc1 came out in this test?
OUT: active

Cited source: PubChem BioAssay AID504383
